Readings of pIC50 for the listed molecules
- System: 317291-083-R-J1-PDC complex spheroid growth
- test protocol: Anticancer human tumor 317291-083-R-J1-PDC patient-derived soft tissue sarcoma cell line growth inhibition [Asc]
- setup conditions: curve of first compound; second compound 0.03 µM
pIC50: −log10 of the molar value.

molecule | pIC50
CNC(C)C(=O)NC1CN(S(=O)(=O)c2cccc(S(=O)(=O)N3CCC4CCC(C(=O)NC(c5ccccc5)c5ccccc5)N4C(=O)C(NC(=O)C(C)NC)C3)c2)CCC2CCC(C(=O)NC(c3ccccc3)c3ccccc3)N2C1=O (stereo not drawn) + CCN1C(C(=O)NC23CCC(C(=O)O)(CC2)CC3)C(c2cccc(Cl)c2F)C2(C(=O)Nc3cc(Cl)ccc32)C12CCCCC2 | 6.29
COc1c(OCCCN2CCOCC2)ccc2c3n(c(=NC(=O)c4cnc(N)nc4)nc12)CCN3 + CCN1C(C(=O)NC23CCC(C(=O)O)(CC2)CC3)C(c2cccc(Cl)c2F)C2(C(=O)Nc3cc(Cl)ccc32)C12CCCCC2 | 6.74
O=C(c1ccc(F)c(F)c1Nc1ccc(I)cc1F)N1CC(O)([C@@H]2CCCCN2)C1 + CCN1C(C(=O)NC23CCC(C(=O)O)(CC2)CC3)C(c2cccc(Cl)c2F)C2(C(=O)Nc3cc(Cl)ccc32)C12CCCCC2 | 6.35

----------
- Test system: 317291-083-R-J1-PDC complex spheroid growth
- test protocol: Anticancer human tumor 317291-083-R-J1-PDC cell line growth inhibition [Asc];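 further: compound exposure lasted seven days after spheroids formed for three days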;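 on viability, T/C: 100% = DMSO vehicle control wells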
- setup conditions: second compound 0.316 µM; first compound 0.316 µM; stronger effect = lower value
assay metric: viability, T/C

molecule | assay metric | result
C=C(F)C(=O)N1CCN(c2nc(OCC3CCCN3C)nc3c2CCN(c2cccc4cccc(Cl)c24)C3)CC1CC#N (stereo not drawn) + Cc1c(S(C)(=O)=O)c(-c2cc(F)cc(N3CCN(c4ccc(NS(=O)(=O)c5ccc(NC(CCN6CCC(C(=O)OCCCP(=O)(O)O)CC6)CSc6ccccc6)c(S(=O)(=O)C(F)(F)F)c5)cc4)CC3)c2)c(-c2ccc(Cl)cc2)n1C(C)C | viability, T/C | 77.5%
C=CC(=O)N1CCN(c2nc(=O)n(-c3c(C)ccnc3C(C)C)c3nc(-c4c(O)cccc4F)c(F)cc23)C(C)C1 (stereo not drawn) + Cc1c(S(C)(=O)=O)c(-c2cc(F)cc(N3CCN(c4ccc(NS(=O)(=O)c5ccc(NC(CCN6CCC(C(=O)OCCCP(=O)(O)O)CC6)CSc6ccccc6)c(S(=O)(=O)C(F)(F)F)c5)cc4)CC3)c2)c(-c2ccc(Cl)cc2)n1C(C)C | viability, T/C | 85.3%
CCN1CCN(Cc2ccc(Nc3ncc(F)c(-c4cc(F)c5nc(C)n(C(C)C)c5c4)n3)nc2)CC1 + CNC(C)C(=O)NC1CN(S(=O)(=O)c2cccc(S(=O)(=O)N3CCC4CCC(C(=O)NC(c5ccccc5)c5ccccc5)N4C(=O)C(NC(=O)C(C)NC)C3)c2)CCC2CCC(C(=O)NC(c3ccccc3)c3ccccc3)N2C1=O | viability, T/C | 33.4%

----------
- System: 317291-083-R-J1-PDC complex spheroid growth
- test protocol: Anticancer human tumor 317291-083-R-J1-PDC cell line growth inhibition [Asc];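 further: compound exposure lasted seven days after spheroids formed for three days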;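 on viability, T/C: 100% = DMSO vehicle control wells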
- setup conditions: second compound 0.949 µM; first compound 0.1 µM; stronger effect = lower value

compound | viability, T/C [%]
C=C(F)C(=O)N1CCN(c2nc(OCC3CCCN3C)nc3c2CCN(c2cccc4cccc(Cl)c24)C3)CC1CC#N (stereo not given) + CCN1C(C(=O)NC23CCC(C(=O)O)(CC2)CC3)C(c2cccc(Cl)c2F)C2(C(=O)Nc3cc(Cl)ccc32)C12CCCCC2 | 93
O=C(c1ccc(F)c(F)c1Nc1ccc(I)cc1F)N1CC(O)([C@@H]2CCCCN2)C1 + CCN1C(C(=O)NC23CCC(C(=O)O)(CC2)CC3)C(c2cccc(Cl)c2F)C2(C(=O)Nc3cc(Cl)ccc32)C12CCCCC2 | 104
O=C(c1cc(Cc2n[nH]c(=O)c3ccccc23)ccc1F)N1CCN(C(=O)C2CC2)CC1 + CCN1C(C(=O)NC23CCC(C(=O)O)(CC2)CC3)C(c2cccc(Cl)c2F)C2(C(=O)Nc3cc(Cl)ccc32)C12CCCCC2 | 109
C#Cc1c(F)ccc2cc(O)cc(-c3ncc4c(N5CC6CCC(C5)N6)nc(OCC56CCCN5CC(F)C6)nc4c3F)c12 (stereo not given) + CCN1C(C(=O)NC23CCC(C(=O)O)(CC2)CC3)C(c2cccc(Cl)c2F)C2(C(=O)Nc3cc(Cl)ccc32)C12CCCCC2 | 108
CNC(C)C(=O)NC1CN(S(=O)(=O)c2cccc(S(=O)(=O)N3CCC4CCC(C(=O)NC(c5ccccc5)c5ccccc5)N4C(=O)C(NC(=O)C(C)NC)C3)c2)CCC2CCC(C(=O)NC(c3ccccc3)c3ccccc3)N2C1=O (stereo not given) + CCN1C(C(=O)NC23CCC(C(=O)O)(CC2)CC3)C(c2cccc(Cl)c2F)C2(C(=O)Nc3cc(Cl)ccc32)C12CCCCC2 | 62.4

----------
- System: 317291-083-R-J1-PDC complex spheroid growth
- test protocol: Anticancer human tumor 317291-083-R-J1-PDC cell line growth inhibition [Asc];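 further: compound exposure lasted seven days after spheroids formed for three days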
- setup conditions: curve of first compound; second compound 0.1 µM
Readings of IC50 for the listed compounds

compound | tested target | display unit | measurement qualifier | IC50
C=C(F)C(=O)N1CCN(c2nc(OCC3CCCN3C)nc3c2CCN(c2cccc4cccc(Cl)c24)C3)CC1CC#N (stereo not drawn) + Cc1c(S(C)(=O)=O)c(-c2cc(F)cc(N3CCN(c4ccc(NS(=O)(=O)c5ccc(NC(CCN6CCC(C(=O)OCCCP(=O)(O)O)CC6)CSc6ccccc6)c(S(=O)(=O)C(F)(F)F)c5)cc4)CC3)c2)c(-c2ccc(Cl)cc2)n1C(C)C | 317291-083-R-J1-PDC complex spheroid growth | µM | = | 1.97
CCN1C(C(=O)NC23CCC(C(=O)O)(CC2)CC3)C(c2cccc(Cl)c2F)C2(C(=O)Nc3cc(Cl)ccc32)C12CCCCC2 (stereo not drawn) + CNC(C)C(=O)NC1CN(S(=O)(=O)c2cccc(S(=O)(=O)N3CCC4CCC(C(=O)NC(c5ccccc5)c5ccccc5)N4C(=O)C(NC(=O)C(C)NC)C3)c2)CCC2CCC(C(=O)NC(c3ccccc3)c3ccccc3)N2C1=O | 317291-083-R-J1-PDC complex spheroid growth | µM | > | 3
O=C(c1cc(Cc2n[nH]c(=O)c3ccccc23)ccc1F)N1CCN(C(=O)C2CC2)CC1 + Cc1c(S(C)(=O)=O)c(-c2cc(F)cc(N3CCN(c4ccc(NS(=O)(=O)c5ccc(NC(CCN6CCC(C(=O)OCCCP(=O)(O)O)CC6)CSc6ccccc6)c(S(=O)(=O)C(F)(F)F)c5)cc4)CC3)c2)c(-c2ccc(Cl)cc2)n1C(C)C | 317291-083-R-J1-PDC complex spheroid growth | µM | = | 8.29

----------
Readings of viability, T/C for the listed molecules
- Test system: 317291-083-R-J1-PDC complex spheroid growth
- test protocol: Anticancer human tumor 317291-083-R-J1-PDC cell line growth inhibition [Asc];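 further: compound exposure lasted seven days after spheroids formed for three days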;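 on viability, T/C: 100% = DMSO vehicle control wells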
- setup conditions: second compound 0.00949 µM; first compound 0.316 µM; stronger effect = lower value

molecule | viability, T/C, %
O=C(c1ccc(F)c(F)c1Nc1ccc(I)cc1F)N1CC(O)([C@@H]2CCCCN2)C1 + CCN1C(C(=O)NC23CCC(C(=O)O)(CC2)CC3)C(c2cccc(Cl)c2F)C2(C(=O)Nc3cc(Cl)ccc32)C12CCCCC2 | 71.9
C=CC(=O)N1CCN(c2nc(=O)n(-c3c(C)ccnc3C(C)C)c3nc(-c4c(O)cccc4F)c(F)cc23)C(C)C1 (centres undefined) + CCN1C(C(=O)NC23CCC(C(=O)O)(CC2)CC3)C(c2cccc(Cl)c2F)C2(C(=O)Nc3cc(Cl)ccc32)C12CCCCC2 | 85.8
COc1c(OCCCN2CCOCC2)ccc2c3n(c(=NC(=O)c4cnc(N)nc4)nc12)CCN3 + CCN1C(C(=O)NC23CCC(C(=O)O)(CC2)CC3)C(c2cccc(Cl)c2F)C2(C(=O)Nc3cc(Cl)ccc32)C12CCCCC2 | 34.6
C#Cc1c(F)ccc2cc(O)cc(-c3ncc4c(N5CC6CCC(C5)N6)nc(OCC56CCCN5CC(F)C6)nc4c3F)c12 (centres undefined) + CCN1C(C(=O)NC23CCC(C(=O)O)(CC2)CC3)C(c2cccc(Cl)c2F)C2(C(=O)Nc3cc(Cl)ccc32)C12CCCCC2 | 125

----------
- System: 317291-083-R-J1-PDC complex spheroid growth
- test protocol: Anticancer human tumor 317291-083-R-J1-PDC cell line growth inhibition [Asc];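 further: compound exposure lasted seven days after spheroids formed for three days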;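 on viability, T/C: 100% = DMSO vehicle control wells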
- setup conditions: second compound 0.316 µM; first compound 0.0316 µM; stronger effect = lower value
assay metric: viability, T/C (%)

molecule | assay metric | display unit | numeric value
C=CC(=O)N1CCN(c2nc(=O)n(-c3c(C)ccnc3C(C)C)c3nc(-c4c(O)cccc4F)c(F)cc23)C(C)C1 (configuration not stated) + Cc1c(S(C)(=O)=O)c(-c2cc(F)cc(N3CCN(c4ccc(NS(=O)(=O)c5ccc(NC(CCN6CCC(C(=O)OCCCP(=O)(O)O)CC6)CSc6ccccc6)c(S(=O)(=O)C(F)(F)F)c5)cc4)CC3)c2)c(-c2ccc(Cl)cc2)n1C(C)C | viability, T/C | % | 91
C#Cc1c(F)ccc2cc(O)cc(-c3ncc4c(N5CC6CCC(C5)N6)nc(OCC56CCCN5CC(F)C6)nc4c3F)c12 (configuration not stated) + Cc1c(S(C)(=O)=O)c(-c2cc(F)cc(N3CCN(c4ccc(NS(=O)(=O)c5ccc(NC(CCN6CCC(C(=O)OCCCP(=O)(O)O)CC6)CSc6ccccc6)c(S(=O)(=O)C(F)(F)F)c5)cc4)CC3)c2)c(-c2ccc(Cl)cc2)n1C(C)C | viability, T/C | % | 93.9
NC1CCC(NC2CC2c2ccccc2)CC1 (configuration not stated) + Cc1c(S(C)(=O)=O)c(-c2cc(F)cc(N3CCN(c4ccc(NS(=O)(=O)c5ccc(NC(CCN6CCC(C(=O)OCCCP(=O)(O)O)CC6)CSc6ccccc6)c(S(=O)(=O)C(F)(F)F)c5)cc4)CC3)c2)c(-c2ccc(Cl)cc2)n1C(C)C | viability, T/C | % | 109
NC1CCC(NC2CC2c2ccccc2)CC1 (configuration not stated) + CNC(C)C(=O)NC1CN(S(=O)(=O)c2cccc(S(=O)(=O)N3CCC4CCC(C(=O)NC(c5ccccc5)c5ccccc5)N4C(=O)C(NC(=O)C(C)NC)C3)c2)CCC2CCC(C(=O)NC(c3ccccc3)c3ccccc3)N2C1=O | viability, T/C | % | 61.9
C=CC(=O)N1CCN(c2nc(=O)n(-c3c(C)ccnc3C(C)C)c3nc(-c4c(O)cccc4F)c(F)cc23)C(C)C1 (configuration not stated) + CNC(C)C(=O)NC1CN(S(=O)(=O)c2cccc(S(=O)(=O)N3CCC4CCC(C(=O)NC(c5ccccc5)c5ccccc5)N4C(=O)C(NC(=O)C(C)NC)C3)c2)CCC2CCC(C(=O)NC(c3ccccc3)c3ccccc3)N2C1=O | viability, T/C | % | 57.2
O=C(c1ccc(F)c(F)c1Nc1ccc(I)cc1F)N1CC(O)([C@@H]2CCCCN2)C1 + CNC(C)C(=O)NC1CN(S(=O)(=O)c2cccc(S(=O)(=O)N3CCC4CCC(C(=O)NC(c5ccccc5)c5ccccc5)N4C(=O)C(NC(=O)C(C)NC)C3)c2)CCC2CCC(C(=O)NC(c3ccccc3)c3ccccc3)N2C1=O | viability, T/C | % | 47.8
COc1c(OCCCN2CCOCC2)ccc2c3n(c(=NC(=O)c4cnc(N)nc4)nc12)CCN3 + CNC(C)C(=O)NC1CN(S(=O)(=O)c2cccc(S(=O)(=O)N3CCC4CCC(C(=O)NC(c5ccccc5)c5ccccc5)N4C(=O)C(NC(=O)C(C)NC)C3)c2)CCC2CCC(C(=O)NC(c3ccccc3)c3ccccc3)N2C1=O | viability, T/C | % | 68.8
